The measured values listed here are drawn from ChEMBL document CHEMBL1201862.

target: Genome polyprotein (dengue virus type 2, UniProt P29990); experiment: Dengue-2 NS5 methyltransferase inhibitors, primary screen, biochemical, confirmation dose response (AID 588689); type: functional
The source made the active and inactive calls.
readout.label: IC50

Past entries and their recorded results:
COc1cc(/C=C2/SC(=S)N(CC(=O)O)C2=O)ccc1OC(=O)c1cccs1 88.3 µM (active)
CC(C)(C)c1ccc(S(=O)(=O)/N=C2\C=C(NS(=O)(=O)c3ccccc3)C(=O)c3ccccc32)cc1 25.5 µM (active)
Cc1ccc(-c2nn(-c3ccccc3)cc2C=C2C(=O)CC(C)(C)CC2=O)cc1 44.8 µM (active)
CC(C)c1ccc(N2C(=O)C(Cl)=C(N3CCOCC3)C2=O)cc1 69.4 µM (active)
Cc1ccc(S(=O)(=O)Oc2ccccc2C=C2C(=O)N(C)C(=O)N(C)C2=O)cc1 37.8 µM (active)

Prompt: Item CSc1ccc(-c2sc(Nc3cccc4ccccc34)n[n+]2-c2ccccc2)cc1 has what recorded IC50?
Completion: 44.5 µM (active)

---

target: Trace amine-associated receptor 1 (Homo sapiens, UniProt Q96RJ0); test: Fluorescence-based cell-based high throughput dose response assay to identify agonists of the human trace amine associated receptor 1 (TAAR1).; type: functional
Sequence (Q96RJ0 whole entry): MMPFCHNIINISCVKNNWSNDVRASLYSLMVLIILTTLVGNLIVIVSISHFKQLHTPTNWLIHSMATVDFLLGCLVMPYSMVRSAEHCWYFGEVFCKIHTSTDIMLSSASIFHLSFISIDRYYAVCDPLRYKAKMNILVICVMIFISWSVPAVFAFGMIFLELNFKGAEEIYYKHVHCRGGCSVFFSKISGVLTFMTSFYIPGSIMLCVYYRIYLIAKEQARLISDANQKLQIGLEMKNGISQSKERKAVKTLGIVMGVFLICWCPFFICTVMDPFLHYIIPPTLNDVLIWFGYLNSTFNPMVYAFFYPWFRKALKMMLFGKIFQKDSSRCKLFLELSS
The source made the active and inactive calls.
readout.label: EC50

// known answers, use as guide
O=C(CNCCc1ccccc1)N1CCc2ccccc2C1 1200 nM (active)
Cc1nnn(-c2nonc2N)c1C(=O)NNC(=O)c1ccc(Cl)c(Cl)c1 5050 nM (active)

Prompt: For O=C(N[C@H](C(=O)N1CCC[C@H]1C(=O)NCCc1ccccc1Cl)c1ccccc1)c1ccccc1 , what is its reported EC50?
Completion: 3780 nM (active)

Prompt: Do the same for O=C(O)CCc1ccc(-c2cccs2)n1CCc1ccccc1 please
Completion: 620 nM (active)

---

target: Cytochrome P450 2C19 (Homo sapiens); test: qHTS Assay for Inhibitors and Substrates of Cytochrome P450 2C19. [Related pubchem assays: 410 ]; assay type: ADME; conditions: read-out: Potency
Sequence (P33261 whole entry): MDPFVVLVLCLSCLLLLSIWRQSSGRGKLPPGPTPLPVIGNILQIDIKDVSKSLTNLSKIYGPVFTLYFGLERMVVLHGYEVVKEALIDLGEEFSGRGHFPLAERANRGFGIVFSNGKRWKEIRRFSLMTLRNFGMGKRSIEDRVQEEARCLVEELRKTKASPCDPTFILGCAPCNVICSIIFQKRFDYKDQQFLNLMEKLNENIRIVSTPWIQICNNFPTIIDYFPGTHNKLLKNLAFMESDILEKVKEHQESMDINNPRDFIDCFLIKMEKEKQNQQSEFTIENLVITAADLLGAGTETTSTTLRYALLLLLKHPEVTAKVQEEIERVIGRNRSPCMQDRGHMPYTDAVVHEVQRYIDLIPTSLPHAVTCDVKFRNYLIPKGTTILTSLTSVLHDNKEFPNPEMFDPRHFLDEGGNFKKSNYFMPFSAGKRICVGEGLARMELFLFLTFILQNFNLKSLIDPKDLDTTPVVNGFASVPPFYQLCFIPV
readout.label: AC50

Prompt: Can you look up the measured AC50 of COc1ccc(-c2coc3cc(O)ccc3c2=O)cc1 for me?
Completion: 7940 nM (inconclusive)

Prompt: Another: COC(=O)NC(/C(C(=O)OC)=C(\C)NCc1ccccc1)c1cccs1 (centres undefined)
Completion: 31.6 nM (inconclusive)

Prompt: Also, CC12CC3OS(=O)OC3CC3C4C(C(OCc5ccccc5)C31)C42 (centres undefined) please.
Completion: 251 nM (inconclusive)

Prompt: What about this compound? CC(=O)OCC1OC(C#Cc2ccc(C)cc2C)C=CC1OC(C)=O (centres undefined)
Completion: 1580 nM (inconclusive)

---

molecular target: Protein RecA (Mycobacterium tuberculosis, UniProt P9WHJ3); experiment: Fluorescence Cell-Free Homogeneous Dose Retest to Identify Inhibitors of RecA-Intein Splicing Activity. [Related pubchem assays (depositor defined):AID2097, AID2223, AID489010, AID492950]; format: functional
Activity calls are given as the source filed them.
readout.label: EC50

Illustrative cases are given below, each with its answer.
compound	result
CN1c2ccc(C=O)c3c(C=O)ccc(c23)N(C)C1(C)C	59.9 µM (inconclusive)
O=[N+]([O-])c1cc(/C=N/Nc2nc3ccccc3[nH]2)c(O)cc1O	6.73 µM (active)
COc1ccc2nc3ccccc3nc2c1N	22.1 µM (active)
CC(=O)OCCNc1cc(SCc2ccco2)c2nonc2c1[N+](=O)[O-]	2.73 µM (active)

Prompt: Please report the recorded EC50 for O=[N+]([O-])c1cc(C(F)(F)F)cc([N+](=O)[O-])c1NCCNC(=S)Nc1ccc(Cl)c(Cl)c1 .
Completion: 303 µM (active)

Prompt: Input Cc1ccc(N(C(=O)CCl)C(C(=O)NC2CCCCC2)c2cccnc2)cc1C (stereo not given)
Completion: 0.339 µM (active)

Prompt: Let us now turn to CC(C)(C)c1ccc(S(=O)(=O)/N=C2\C=C(NS(=O)(=O)c3ccccc3)C(=O)c3ccccc32)cc1
Completion: 4.85 µM (active)

Prompt: Same read-out for CC1=NN(c2ccccc2)C(=O)/C1=C/c1cn(C)c2ccccc12 ?
Completion: 39 µM (active)

Prompt: // next record Cc1cc(=O)n(C2CCS(=O)(=O)C2)[nH]1 (stereo not given)
Completion: 1.91 µM (active)

Prompt: Request: CCOc1ccc(Cl)cc1C(c1c(C)n[nH]c1O)c1c(C)n[nH]c1O
Completion: 0.221 µM (active)

---

biological target: Beta-galactosidase (Escherichia coli, UniProt Q8VNN2); experiment: beta-galactosidase enzyme inhibitors and activators, dose response, artefact control for CCR6 antagonist project, biochemical, E. coli enzyme, set 3 (AID 504712); type: functional
Sequence (Q8VNN2 whole entry): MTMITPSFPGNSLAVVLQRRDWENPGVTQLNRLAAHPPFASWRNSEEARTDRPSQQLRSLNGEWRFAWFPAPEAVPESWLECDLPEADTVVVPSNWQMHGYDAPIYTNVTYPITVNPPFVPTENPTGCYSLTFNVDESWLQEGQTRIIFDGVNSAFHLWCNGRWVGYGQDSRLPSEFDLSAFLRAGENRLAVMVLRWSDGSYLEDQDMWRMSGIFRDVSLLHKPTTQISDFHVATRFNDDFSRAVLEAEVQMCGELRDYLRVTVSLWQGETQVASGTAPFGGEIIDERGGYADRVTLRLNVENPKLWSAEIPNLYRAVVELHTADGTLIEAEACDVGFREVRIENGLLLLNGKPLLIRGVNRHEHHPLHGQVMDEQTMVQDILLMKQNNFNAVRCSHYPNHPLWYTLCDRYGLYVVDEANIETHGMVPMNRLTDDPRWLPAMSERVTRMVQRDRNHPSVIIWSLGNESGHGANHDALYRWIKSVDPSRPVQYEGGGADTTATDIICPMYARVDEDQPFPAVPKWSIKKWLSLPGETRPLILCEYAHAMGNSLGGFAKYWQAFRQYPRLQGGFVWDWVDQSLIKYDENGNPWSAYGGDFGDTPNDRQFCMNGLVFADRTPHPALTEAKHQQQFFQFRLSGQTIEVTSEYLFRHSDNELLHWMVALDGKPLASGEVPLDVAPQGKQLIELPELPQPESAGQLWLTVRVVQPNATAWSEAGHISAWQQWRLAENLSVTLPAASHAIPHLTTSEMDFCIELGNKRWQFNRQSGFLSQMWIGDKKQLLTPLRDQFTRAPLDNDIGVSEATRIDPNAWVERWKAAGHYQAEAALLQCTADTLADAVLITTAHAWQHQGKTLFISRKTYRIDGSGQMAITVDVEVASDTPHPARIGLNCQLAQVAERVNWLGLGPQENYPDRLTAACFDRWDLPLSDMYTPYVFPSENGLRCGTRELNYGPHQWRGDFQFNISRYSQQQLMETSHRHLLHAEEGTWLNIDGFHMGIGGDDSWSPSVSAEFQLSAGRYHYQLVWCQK
Active and inactive are the calls of the source.
readout.label: IC50

# example entries with known answers
Cc1ccc(S(=O)(=O)c2ccc([N+](=O)[O-])cn2)cc1 > 66.6 µM (inactive)
COCCCn1c(N)c(-c2nc3ccccc3n2C)c2nc3ccccc3nc21 > 66.6 µM (inactive)
Oc1ccc(Cl)c2cccnc12 > 66.6 µM (inactive)

Prompt: Query: IC50; subject: O=[N+]([O-])c1ccc(NN=Cc2ccccc2O)nc1
Completion: 46 µM (inactive)

---

Recorded AC50 by entry
test: Luminescence Cell-Based Dose Retest to Confirm Inhibitors of Cancer Stem Cells. [Related pubchem assays (depositor defined):AID2717, AID2721]; type: functional; settings: Homo sapiens
The source made the active and inactive calls.

compound	result
COC(=O)Nc1ccc(S(=O)(=O)N2c3ccccc3CCC2C)cc1 (centres undefined)	0.876 µM (active)
CCOCCCNC(=O)/C(C#N)=C/c1ccc([N+](=O)[O-])o1	5.62 µM (active)
SC1=NC[C@H](Cc2ccccc2)N1CCCCC1CCCCC1	6.26 µM (active)
OCCNc1nc(Nc2ccc(Cl)c(Cl)c2)nc2ccccc12	2.43 µM (active)
O=C(COCc1cc(-c2ccc3c(c2)OCO3)on1)N1CCN(c2cccc(C(F)(F)F)c2)CC1	1.51 µM (active)
CCN1CCN(C(=O)c2ccc(CSc3ccc(C)cc3)cc2)CC1	< 0.16 µM (active)

Prompt: Form field: reported AC50 of Sc1nnc(COc2ccccc2)n1/N=C/C(Cl)=C/c1ccccc1
Completion: 2.32 µM (active)

Prompt: Note, next up: CN(C)CCCNc1ccc(-c2cc(Nc3cccc(Cl)c3)ncn2)cn1
Completion: 4.54 µM (active)

Prompt: // same read-out, input: COc1ccc(/C=C/c2nc3cc(-c4ccccc4)ccc3o2)cc1O
Completion: 4.06 µM (active)

---

biological target: Streptokinase A (Streptococcus pyogenes serotype M1, UniProt P10520); test: S. pyogenes streptokinase expression inhibitors, potency, dose response, plasminogen activation absorbance, OD405 (AID 1914); type: functional, Streptococcus pyogenes M1 GAS;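 note: secreted streptokinase activity via plasminogen activation per viability signal from cell pellet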
Sequence (P10520 whole entry): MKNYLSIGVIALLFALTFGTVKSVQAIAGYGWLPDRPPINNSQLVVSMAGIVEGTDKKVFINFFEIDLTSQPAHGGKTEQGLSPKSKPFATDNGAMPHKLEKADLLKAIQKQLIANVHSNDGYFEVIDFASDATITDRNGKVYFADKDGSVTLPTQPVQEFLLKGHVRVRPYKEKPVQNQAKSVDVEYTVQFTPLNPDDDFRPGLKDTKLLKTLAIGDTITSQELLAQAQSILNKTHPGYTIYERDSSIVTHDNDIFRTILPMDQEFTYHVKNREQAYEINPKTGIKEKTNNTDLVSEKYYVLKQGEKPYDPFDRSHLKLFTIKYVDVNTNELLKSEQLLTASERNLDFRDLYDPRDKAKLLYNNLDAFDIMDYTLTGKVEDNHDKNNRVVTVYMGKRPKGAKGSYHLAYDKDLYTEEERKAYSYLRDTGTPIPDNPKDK
Active and inactive are the calls of the source.
readout.label: EC50

Solved cases (8 shown):
compound	assay.target	EC50
Cc1ccc(C2CC(c3cccs3)=NN2C(=O)c2ccc(Br)o2)cc1 (centres undefined)	Streptokinase A (Streptococcus pyogenes serotype M1, UniProt P10520)	> 150 µM (not active)
COc1ccc(/C=N/Nc2cc(C)nc(-n3nc(C)cc3C)n2)c(OC)c1	Streptokinase A (Streptococcus pyogenes serotype M1, UniProt P10520)	> 150 µM (not active)
O=[N+]([O-])c1cc(C(F)(F)F)cc([N+](=O)[O-])c1NCCNC(=S)Nc1ccc(Cl)c(Cl)c1	Streptokinase A (Streptococcus pyogenes serotype M1, UniProt P10520)	7.06 µM (inconclusive)
C/C(=N\Nc1cc(C)nc(-c2ccccc2O)n1)c1ccccc1O	Streptokinase A (Streptococcus pyogenes serotype M1, UniProt P10520)	14 µM (active)
O=C(Nc1cccc(S(=O)(=O)Nc2ccc(Cl)cc2)c1)c1cc2c(s1)CCCC2	Streptokinase A (Streptococcus pyogenes serotype M1, UniProt P10520)	5.01 µM (active)
N#C/C(=C(/O)CN1CCN(c2ccccc2F)CC1)c1nc(-c2ccccc2)cs1	Streptokinase A (Streptococcus pyogenes serotype M1, UniProt P10520)	> 150 µM (not active)
N=C1S/C(=C\c2cn[nH]c2-c2ccc(F)cc2)C(=O)N1c1ccccc1F	Streptokinase A (Streptococcus pyogenes serotype M1, UniProt P10520)	> 150 µM (not active)
Cc1ccc(CS(=O)(=O)c2ncc(Cl)c(C(=O)Nc3ccc(OC(F)F)cc3)n2)cc1	Streptokinase A (Streptococcus pyogenes serotype M1, UniProt P10520)	2.07 µM (active)

Prompt: Look at this compound and give its reported EC50. CC(C)C[C@H](NC(=O)c1[nH]cnc1C(=O)N[C@H](C)c1ccccc1)C(=O)OC(C)(C)C
Completion: > 150 µM (not active)

---

tested on: H4; test: Luminescence Cell-Based Dose Response HTS to Identify Activators of 5'UTR Stem-Loop Driven Prion Protein mRNA Translation in H4 Neuroglioblastoma Cells. [Related pubchem assays: 1829 (Project Summary), 1814 (Primary HTS)]; type: functional; conditions: Homo sapiens
Activity calls are given as the source filed them.
Recorded measurements of EC50, one per entry

Please review the entries below; each comes with its answer.
N=C1S/C(=C\c2cn[nH]c2-c2ccc(F)cc2)C(=O)N1c1ccccc1F > 120 µM (not active)
COc1ccc(/C=N/Nc2nnc(-c3ncc[nH]3)c3ccccc23)cc1 65.2 µM (active)
Cc1ccc(NC2=NC(=O)c3cccc([N+](=O)[O-])c32)cc1 26.8 µM (active)
Cc1ccc(-c2nn(-c3ccccc3)cc2C=C2C(=O)CC(C)(C)CC2=O)cc1 > 120 µM (not active)

Prompt: # get_value(readout='EC50', item= CNC(=O)C1CCN(S(=O)(=O)c2c(C)noc2/C=C/c2ccccc2F)CC1 )
Completion: > 120 µM (not active)
